Item-by-item account of kon
# TESTED TARGET: T1, recombinant biotinylated human PAR2 extracellular domain (residues 1-75), N-terminal AviTag, C-terminal Flag … (human, UniProt P55085 26-75, biotin on the AviTag (enzymatic biotinylation))
# T1 construct: also called Bio-human-PAR2 ECD; human PAR2 ECD; not shown: N-terminal AviTag (Avidity LLC); C-terminal Flag and poly Histidine tags
# T1 sequence (P55085 26-75): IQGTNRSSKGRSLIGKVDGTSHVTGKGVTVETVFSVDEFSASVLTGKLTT
# ASSAY NAME: Biacore SPR 25 C, pH 6.0

{"BINDER": "PaB670048 Fab (Fab, V domains shown, Fab; also called ZZ1KX4-E11) VH: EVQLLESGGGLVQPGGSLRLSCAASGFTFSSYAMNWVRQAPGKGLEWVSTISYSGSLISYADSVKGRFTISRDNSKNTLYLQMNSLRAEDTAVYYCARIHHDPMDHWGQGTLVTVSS VL: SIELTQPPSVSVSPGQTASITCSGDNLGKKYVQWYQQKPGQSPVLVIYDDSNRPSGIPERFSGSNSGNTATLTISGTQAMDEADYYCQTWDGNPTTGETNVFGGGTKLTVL", "READOUT UNIT": "M⁻¹ s⁻¹", "kon": "1.94e+06"}
{"BINDER": "PaB670120 Fab (Fab, V domains shown, Fab; also called ZZ1RUC-C11) VH: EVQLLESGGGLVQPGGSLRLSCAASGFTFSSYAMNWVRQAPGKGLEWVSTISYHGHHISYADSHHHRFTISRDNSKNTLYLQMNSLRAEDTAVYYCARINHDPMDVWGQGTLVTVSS VL: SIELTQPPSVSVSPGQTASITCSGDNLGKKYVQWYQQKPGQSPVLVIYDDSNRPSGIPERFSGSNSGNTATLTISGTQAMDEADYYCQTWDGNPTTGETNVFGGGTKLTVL", "READOUT UNIT": "M⁻¹ s⁻¹", "kon": "3.48e+06"}
{"BINDER": "PaB670084 Fab (Fab, V domains shown, Fab; also called ZZ1PXA-A05) VH: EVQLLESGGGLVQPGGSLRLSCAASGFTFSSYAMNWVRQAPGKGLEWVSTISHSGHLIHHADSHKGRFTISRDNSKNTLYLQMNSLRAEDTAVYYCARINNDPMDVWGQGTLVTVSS VL: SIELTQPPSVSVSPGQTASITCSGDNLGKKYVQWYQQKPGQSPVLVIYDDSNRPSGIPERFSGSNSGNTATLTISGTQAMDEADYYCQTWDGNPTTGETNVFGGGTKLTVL", "READOUT UNIT": "M⁻¹ s⁻¹", "kon": "1.73e+06"}
